# Test system: Penicillinsensitive S. aureus
# Measurement Protocol: MIC, two-fold serial agar dilution in Mueller-Hinton agar, group (G+)-Ia
# Type: cell-based
# Cond: Staphylococcus aureus; (G+)-Ia, penicillin-sensitive S. aureus (5 strains); read-out: Geometric Mean of MIC
The label is condition met for MIC below 6 µg/mL and condition not met for MIC equal to or exceeding 6 µg/mL.

Previously resolved entries follow.
CC(C)(O/N=C(\C(=O)NC1C(=O)N2C(C(=O)[O-])=C(C[n+]3ccsc3NC=O)CS[C@H]12)c1csc(N)n1)C(=O)O (stereo partly shown) [Example 14]: condition met
COc1sc[n+](CC2=C(C(=O)[O-])N3C(=O)C(NC(=O)/C(=N\OC(C)(C)C(=O)O)c4csc(N)n4)C3SC2)c1C (stereo not shown) [Example 9]: condition not met
CNc1scc[n+]1CC1=C(C(=O)[O-])N2C(=O)C(NC(=O)/C(=N\OC(C)(C)C(=O)O)c3csc(N)n3)[C@H]2SC1 (stereo partly shown) [Example 15]: condition not met
CC(C)(O/N=C(\C(=O)NC1C(=O)N2C(C(=O)[O-])=C(C[n+]3ccsc3)CSC12)c1csc(N)n1)C(=O)O (stereo not shown) [Example 5]: condition not met

Enquiry: Quick check: MIC of CO/N=C(\C(=O)NC1C(=O)N2C(C(=O)[O-])=C(C[n+]3ccsc3SC)CS[C@H]12)c1csc(N)n1 (stereo partly shown) [Example 3] under 6 µg/mL?
Return: condition met

Enquiry: Dear colleague, could you confirm whether MIC of CC(C)(O/N=C(\C(=O)NC1C(=O)N2C(C(=O)[O-])=C(C[n+]3ccsc3N)CS[C@H]12)c1csc(N)n1)C(=O)O (stereo partly shown) [Example 8] falls below 6 µg/mL? Thanks.
Return: condition met

Enquiry: Please state whether MIC is below 6 µg/mL for CCSc1scc[n+]1CC1=C(C(=O)[O-])N2C(=O)C(NC(=O)/C(=N\OC3(C(=O)O)CCC3)c3csc(N)n3)[C@H]2SC1 (stereo partly shown) [Example 12]
Return: condition met
